Where do the numbers come from? From paper PMC3438196.

biological target: codon optimized Vif SLQ144-146AAA MAPPIT prey (pMG2-VifoptSLQ), P12504; assay: MAPPIT; settings: chain shown with the change
Readout: percent of parent

Examples with answers:
Binder: Apobec3G-GFP MAPPIT bait (pCEL-Apobec3G-GFP), Q9HC16 R238C (protein) MKPHFRNTVERMYRDTFSYNFYNRPILSRRNTVWLCYEVKTKGPSRPPLDAKIFRGQVYSELKYHPEMRFFHWFSKWRKLHRDQEYEVTWYISWSPCTKCTRDMATFLAEDPKVTLTIFVARLYYFWDPDYQEALRSLCQKRDGPRATMKIMNYDEFQHCWSKFVYSQRELFEPWNNLPKYYILLHIMLGEILRHSMDPPTFTFNFNNEPWVRGRHETYLCYEVERMHNDTWVLLNQCRGFLCNQAPHKHGFLEGRHAELCFLDVIPFWKLDLDQDYRVTCFTSWSPCFSCAQEMAKFISKNKHVSLCIFTARIYDDQGRCQEGLRTLAEAGAKISIMTYSEFKHCWDTFVDHQGCPFQPWDGLDEHSQDLSGRLRAILQNQEN
percent of parent: 55 % of WT

Binder: Apobec3G-GFP MAPPIT bait (pCEL-Apobec3G-GFP), Q9HC16 K270E (protein) MKPHFRNTVERMYRDTFSYNFYNRPILSRRNTVWLCYEVKTKGPSRPPLDAKIFRGQVYSELKYHPEMRFFHWFSKWRKLHRDQEYEVTWYISWSPCTKCTRDMATFLAEDPKVTLTIFVARLYYFWDPDYQEALRSLCQKRDGPRATMKIMNYDEFQHCWSKFVYSQRELFEPWNNLPKYYILLHIMLGEILRHSMDPPTFTFNFNNEPWVRGRHETYLCYEVERMHNDTWVLLNQRRGFLCNQAPHKHGFLEGRHAELCFLDVIPFWELDLDQDYRVTCFTSWSPCFSCAQEMAKFISKNKHVSLCIFTARIYDDQGRCQEGLRTLAEAGAKISIMTYSEFKHCWDTFVDHQGCPFQPWDGLDEHSQDLSGRLRAILQNQEN
percent of parent: 58 % of WT

Binder: Apobec3G-GFP MAPPIT bait (pCEL-Apobec3G-GFP), Q9HC16 W94R (protein) MKPHFRNTVERMYRDTFSYNFYNRPILSRRNTVWLCYEVKTKGPSRPPLDAKIFRGQVYSELKYHPEMRFFHWFSKWRKLHRDQEYEVTWYISRSPCTKCTRDMATFLAEDPKVTLTIFVARLYYFWDPDYQEALRSLCQKRDGPRATMKIMNYDEFQHCWSKFVYSQRELFEPWNNLPKYYILLHIMLGEILRHSMDPPTFTFNFNNEPWVRGRHETYLCYEVERMHNDTWVLLNQRRGFLCNQAPHKHGFLEGRHAELCFLDVIPFWKLDLDQDYRVTCFTSWSPCFSCAQEMAKFISKNKHVSLCIFTARIYDDQGRCQEGLRTLAEAGAKISIMTYSEFKHCWDTFVDHQGCPFQPWDGLDEHSQDLSGRLRAILQNQEN
percent of parent: 27 % of WT

Binder: Apobec3G-GFP MAPPIT bait (pCEL-Apobec3G-GFP), Q9HC16 F157I (protein) MKPHFRNTVERMYRDTFSYNFYNRPILSRRNTVWLCYEVKTKGPSRPPLDAKIFRGQVYSELKYHPEMRFFHWFSKWRKLHRDQEYEVTWYISWSPCTKCTRDMATFLAEDPKVTLTIFVARLYYFWDPDYQEALRSLCQKRDGPRATMKIMNYDEIQHCWSKFVYSQRELFEPWNNLPKYYILLHIMLGEILRHSMDPPTFTFNFNNEPWVRGRHETYLCYEVERMHNDTWVLLNQRRGFLCNQAPHKHGFLEGRHAELCFLDVIPFWKLDLDQDYRVTCFTSWSPCFSCAQEMAKFISKNKHVSLCIFTARIYDDQGRCQEGLRTLAEAGAKISIMTYSEFKHCWDTFVDHQGCPFQPWDGLDEHSQDLSGRLRAILQNQEN
percent of parent: 39 % of WT

Binder: Apobec3G-GFP MAPPIT bait (pCEL-Apobec3G-GFP), Q9HC16 E191V (protein) MKPHFRNTVERMYRDTFSYNFYNRPILSRRNTVWLCYEVKTKGPSRPPLDAKIFRGQVYSELKYHPEMRFFHWFSKWRKLHRDQEYEVTWYISWSPCTKCTRDMATFLAEDPKVTLTIFVARLYYFWDPDYQEALRSLCQKRDGPRATMKIMNYDEFQHCWSKFVYSQRELFEPWNNLPKYYILLHIMLGVILRHSMDPPTFTFNFNNEPWVRGRHETYLCYEVERMHNDTWVLLNQRRGFLCNQAPHKHGFLEGRHAELCFLDVIPFWKLDLDQDYRVTCFTSWSPCFSCAQEMAKFISKNKHVSLCIFTARIYDDQGRCQEGLRTLAEAGAKISIMTYSEFKHCWDTFVDHQGCPFQPWDGLDEHSQDLSGRLRAILQNQEN
percent of parent: 41 % of WT

Give me percent of parent for each of these binders, listed below.
1. Apobec3G-GFP MAPPIT bait (pCEL-Apobec3G-GFP), Q9HC16 R122C (protein) MKPHFRNTVERMYRDTFSYNFYNRPILSRRNTVWLCYEVKTKGPSRPPLDAKIFRGQVYSELKYHPEMRFFHWFSKWRKLHRDQEYEVTWYISWSPCTKCTRDMATFLAEDPKVTLTIFVACLYYFWDPDYQEALRSLCQKRDGPRATMKIMNYDEFQHCWSKFVYSQRELFEPWNNLPKYYILLHIMLGEILRHSMDPPTFTFNFNNEPWVRGRHETYLCYEVERMHNDTWVLLNQRRGFLCNQAPHKHGFLEGRHAELCFLDVIPFWKLDLDQDYRVTCFTSWSPCFSCAQEMAKFISKNKHVSLCIFTARIYDDQGRCQEGLRTLAEAGAKISIMTYSEFKHCWDTFVDHQGCPFQPWDGLDEHSQDLSGRLRAILQNQEN
2. Apobec3G-GFP MAPPIT bait (pCEL-Apobec3G-GFP), Q9HC16 Y222N (protein) MKPHFRNTVERMYRDTFSYNFYNRPILSRRNTVWLCYEVKTKGPSRPPLDAKIFRGQVYSELKYHPEMRFFHWFSKWRKLHRDQEYEVTWYISWSPCTKCTRDMATFLAEDPKVTLTIFVARLYYFWDPDYQEALRSLCQKRDGPRATMKIMNYDEFQHCWSKFVYSQRELFEPWNNLPKYYILLHIMLGEILRHSMDPPTFTFNFNNEPWVRGRHETYLCNEVERMHNDTWVLLNQRRGFLCNQAPHKHGFLEGRHAELCFLDVIPFWKLDLDQDYRVTCFTSWSPCFSCAQEMAKFISKNKHVSLCIFTARIYDDQGRCQEGLRTLAEAGAKISIMTYSEFKHCWDTFVDHQGCPFQPWDGLDEHSQDLSGRLRAILQNQEN

16 % of WT
12 % of WT
